Biological target: Cholecystokinin receptor type A (Homo sapiens)
Sequence (P32238 whole entry): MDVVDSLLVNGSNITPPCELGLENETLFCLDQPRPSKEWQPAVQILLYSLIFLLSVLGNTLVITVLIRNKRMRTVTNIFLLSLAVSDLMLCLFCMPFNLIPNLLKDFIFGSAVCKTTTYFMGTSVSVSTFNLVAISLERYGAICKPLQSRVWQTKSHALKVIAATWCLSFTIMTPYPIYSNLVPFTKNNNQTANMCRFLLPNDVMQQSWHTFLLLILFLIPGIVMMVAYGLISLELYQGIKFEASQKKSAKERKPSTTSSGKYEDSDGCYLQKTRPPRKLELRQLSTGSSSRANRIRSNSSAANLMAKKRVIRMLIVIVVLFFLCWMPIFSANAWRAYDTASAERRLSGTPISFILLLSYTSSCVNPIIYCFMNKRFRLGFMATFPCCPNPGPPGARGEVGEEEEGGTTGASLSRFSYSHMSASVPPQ
Assay: Compound was tested in vitro for its ability to displace [125I]Bolton-Hunter CCK-8 from membrane preparation isolated from CHO-KI cells stably transfected with cDNA of human Cholecystokinin type A receptor
Quantity Kind: IC50

CC(C)N(C(=O)CN1C(=O)C(NC(=O)c2cc3ccccc3[nH]2)C(=O)N(c2ccccc2)c2ccccc21)c1ccccc1 (configuration not stated): 15.8 nM

Alright, here's another compound for you.
Query block: Short answer please: IC50, Cholecystokinin receptor type A (Homo sapiens), entry CC(C)N(C(=O)CN1C(=O)C(NC(=O)Nc2cccc(C(=O)O)c2)C(=O)N(c2ccccc2)c2ccccc21)c1ccccc1 (configuration not stated)
Result block: 126 nM
